- Study System: Orexin/Hypocretin receptor type 1 (Homo sapiens) (UniProt O43613)
- Sequence (O43613 whole entry, looked up): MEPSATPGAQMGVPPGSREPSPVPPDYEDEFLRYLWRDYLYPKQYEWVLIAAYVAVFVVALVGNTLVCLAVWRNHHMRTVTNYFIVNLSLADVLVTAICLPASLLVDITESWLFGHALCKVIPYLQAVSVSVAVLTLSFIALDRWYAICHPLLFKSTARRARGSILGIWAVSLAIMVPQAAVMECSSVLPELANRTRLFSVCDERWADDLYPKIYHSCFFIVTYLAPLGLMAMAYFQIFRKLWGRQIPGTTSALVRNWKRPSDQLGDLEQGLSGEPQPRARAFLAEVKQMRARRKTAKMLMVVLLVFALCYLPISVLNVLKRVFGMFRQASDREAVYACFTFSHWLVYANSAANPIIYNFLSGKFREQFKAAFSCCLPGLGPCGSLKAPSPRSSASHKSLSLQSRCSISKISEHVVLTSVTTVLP
- Assay Details: blockers of orexin-A calcium signaling via HCRTR1 – fluorescence, CHO/OX1R cells, Fluo-8 calcium, primary screen (AID 434989);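 note: 0% = orexin A challenge wells and 100% = SB-334867-A antagonist wells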
- Applied Conditions: Fluo-8 calcium fluorescence, at 5 µM, active compounds read high
About 1,400 (0.42%) of roughly 330,000 compounds were called active. Many of the other results were omitted from the sample, so actives are more common in it than they were.
Quantity Name: inhibition (%)
Write the value in % as a bare number.

Worked examples, 5 compounds total:
Compound | Uom | inhibition
C[N+](C)(CCCCCC[N+](C)(C)CCCN1C(=O)c2cccc3cccc(c23)C1=O)CCCN1C(=O)c2cccc3cccc(c23)C1=O | % | -0.77
Cc1ccc([C@@H]2CC=C(C(=O)O)[C@H](c3cccc(Cl)c3)N2S(=O)(=O)c2ccc(C)cc2)cc1 | % | 10.8
CC1(C)C[C@H]2C3=CCC4[C@@]5(C)CC[C@H](O)[C@](C)(CO)C5CC[C@@]4(C)[C@]3(C)C[C@@H](O)[C@@]2(CO)[C@@H](O)[C@@H]1O (stereo not given in full) | % | -0.97
O=C(C[C@H]1C/C=C\C[C@@H](NC(=O)OCC2c3ccccc3-c3ccccc32)C(=O)O[C@@H](c2ccccc2)CNC1=O)N[C@H](CO)Cc1ccccc1 | % | -18.2
CC(C)n1cnc2c(NCc3ccccc3)cc(N[C@@H](CO)Cc3ccccc3)cc21 | % | -6.91

inhibition reported for this compound "CCC(=O)N1CCN(c2ccccc2NC(=O)COc2cccc(C)c2C)CC1" : -25.6

inhibition reported for this compound "COc1ccc(CNC(=O)C[C@H]2C[C@H](C(=O)N3CCOCC3)[C@@]3(C)c4[nH]c5cc(CCC(=O)N(C)C)ccc5c4CCN3C2=O)cc1OC" : -8.18

* * *

- Study System: Orexin/Hypocretin receptor type 1 (Homo sapiens) (UniProt O43613)
- Assay Details: blockers of orexin-A calcium signaling via HCRTR1 – fluorescence, CHO/OX1R cells, Fluo-8 calcium, primary screen (AID 434989);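 note: 0% = orexin A challenge wells and 100% = SB-334867-A antagonist wells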
- Applied Conditions: Fluo-8 calcium fluorescence, at 5 µM, active compounds read high
Screen size: about 330,000 compounds; about 1,400 (0.42%) were called active. The full list was thinned out, with actives kept by preference.
# inhibition per record follows
Write the value in % as a bare number.

Compound | Uom | inhibition
Cc1noc(C)c1S(=O)(=O)N(C)C[C@H]1Oc2ccc(NC(=O)C3CCCCC3)cc2C(=O)N([C@H](C)CO)C[C@@H]1C | % | -7.01
O=C(COC(=O)/C=C/c1ccc(Br)o1)Nc1cccc(S(=O)(=O)N2CCOCC2)c1 | % | -6.48

inhibition reported for this compound OC(CNCCc1ccc(Cl)cc1Cl)COc1ccccc1 (centres undefined) : -12.8

inhibition reported for this compound "COC(=O)[C@]1(Cc2ccccc2)N[C@H](CN(C)S(=O)(=O)c2ccc(OC(F)(F)F)cc2)[C@@H]2C(=O)N(Cc3ccccc3)C(=O)[C@@H]21" : -14.3

inhibition reported for this compound "COc1ccc(-c2sc3ccc(OC)cc3c2C#Cc2ccccn2)cc1" : -20.1

inhibition reported for this compound "O=C(COC(=O)Cc1ccc([N+](=O)[O-])cc1)NC1CCCCCC1" : -29.4

inhibition reported for this compound "O=C(N/N=C/c1c(Cl)[nH]c2ccccc12)c1sc2ccccc2c1Cl" : 92.7
